Each entry below lists one item and its recorded Percent Effect value.
Tested on: Leishmania donovani
procedure summary: Leishmania intramacrophage assay
Type: functional, organism-based
Parameters: scale not given: in the data most compounds retested in dose-response had high values
condition info: 30.3 µM; […]
The whole screen tested about 69,000 compounds, of which about 1,000 (1.4%) showed an effect of 50% or more. The list comes from a sample in which strong results are over-represented; it also holds close analogues and randomly drawn compounds.
Report as a plain number; the unit % is understood.

Below, each entry is followed by its recorded Percent Effect result.
compound structure	unit of measurement	measured result
O=C(NC1CC1)c1nc(Cn2c(C(F)F)nc3ccccc32)no1	%	-15.36
Cc1nccnc1N1C[C@H](NC(=O)CNS(C)(=O)=O)[C@@H](C2CC2)C1	%	8.886
O=C(C[C@@H]1COC[C@H]2CN(C3CCCC3)C[C@@H]12)N1CCCCO1.O=C(O)C(F)(F)F	%	0.3497
Cc1cnn(CC(=O)Nc2cc(-n3nnnc3C3CC3)ccc2F)c1	%	1.472

Kindly consider the entry below.
*Q* # get_value(readout='Percent Effect', item= `CC(C)NC(=O)c1nc(Cn2c(C(F)(F)F)nc3ccccc32)no1` )
*A* 55.95
